Target: canine TRPM8 (Canis lupus familiaris, UniProt Q1A7N1)
Construct: expressed in transfected cells
Sequence (Q1A7N1 1-1104): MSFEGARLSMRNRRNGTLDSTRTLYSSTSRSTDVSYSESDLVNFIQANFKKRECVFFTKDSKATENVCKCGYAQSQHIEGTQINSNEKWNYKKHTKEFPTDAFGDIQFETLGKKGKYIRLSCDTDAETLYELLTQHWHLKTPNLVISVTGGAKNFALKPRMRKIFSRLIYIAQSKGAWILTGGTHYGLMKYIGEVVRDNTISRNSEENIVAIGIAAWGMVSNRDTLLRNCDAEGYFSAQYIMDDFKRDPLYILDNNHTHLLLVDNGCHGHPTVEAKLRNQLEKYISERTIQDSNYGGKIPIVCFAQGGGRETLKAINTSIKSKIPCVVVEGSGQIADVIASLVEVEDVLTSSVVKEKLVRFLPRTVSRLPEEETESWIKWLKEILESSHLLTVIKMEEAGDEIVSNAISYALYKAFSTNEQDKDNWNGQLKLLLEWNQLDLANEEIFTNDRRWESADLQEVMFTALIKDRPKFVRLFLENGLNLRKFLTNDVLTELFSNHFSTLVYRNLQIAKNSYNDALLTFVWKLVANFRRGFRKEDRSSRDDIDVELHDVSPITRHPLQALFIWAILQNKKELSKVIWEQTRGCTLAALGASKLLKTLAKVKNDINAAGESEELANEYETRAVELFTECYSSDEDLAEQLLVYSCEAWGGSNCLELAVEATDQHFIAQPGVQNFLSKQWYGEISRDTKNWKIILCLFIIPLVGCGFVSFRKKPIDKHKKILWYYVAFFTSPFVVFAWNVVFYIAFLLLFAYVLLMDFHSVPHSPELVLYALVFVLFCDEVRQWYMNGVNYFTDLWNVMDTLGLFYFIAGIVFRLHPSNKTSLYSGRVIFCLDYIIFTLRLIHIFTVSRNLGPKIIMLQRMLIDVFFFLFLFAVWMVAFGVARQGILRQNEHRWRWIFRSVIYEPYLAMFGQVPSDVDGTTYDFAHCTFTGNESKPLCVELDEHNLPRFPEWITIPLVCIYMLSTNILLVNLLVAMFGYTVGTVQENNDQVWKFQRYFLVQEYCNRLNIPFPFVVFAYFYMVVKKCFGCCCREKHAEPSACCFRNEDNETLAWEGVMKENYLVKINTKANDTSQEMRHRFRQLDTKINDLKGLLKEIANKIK
Assay: In Vitro Canine TRPM8 Functional Assay (intracellular Ca2+ fluorescence, icilin activation, HEK293 cells)
Assay type: cell-based
Details: 0.2 μM test compound; individually measured values
experimental_readout: % Inh (%) @0.2 μM, in vitro TRP M8 Activity

[
  {
    "compound": "Cn1nc(C(C)(C)C)c(Cl)c1-c1nc2cc(-c3ccccc3Cl)cc(Cl)c2[nH]1.[Na] [Compound 115]",
    "recorded_value": "100, 100%"
  },
  {
    "compound": "Cn1nc(C(C)(C)C)c(C#N)c1-c1nc2cc(-c3ccccc3OC(F)(F)F)cc(C(F)(F)F)c2[nH]1.[Na] [Compound 150]",
    "recorded_value": "100, 100%"
  },
  {
    "compound": "Cl.Cn1nc(C(C)(C)C)c(Cl)c1-c1nc2cc(-c3ccccc3OC(F)(F)F)cc(Cl)c2[nH]1 [Compound 117]",
    "recorded_value": "100, 100%"
  },
  {
    "compound": "Cl.Cn1nc(C(C)(C)C)c(Cl)c1-c1nc2cc(-c3c(F)cccc3F)cc(Cl)c2[nH]1 [Compound 112]",
    "recorded_value": "99, 99%"
  }
]

====

Reported values of inhibition at 0.2 µM for individual entries
Target: canine TRPM8 (Canis lupus familiaris, UniProt Q1A7N1)
Construct: expressed in transfected cells
Experiment: In Vitro Canine TRPM8 Functional Assay (intracellular Ca2+ fluorescence, icilin activation, HEK293 cells)
Type: cell-based
Settings: HEK293, 0.2 μM test compound; individually measured values; read-out: % Inh (%) @0.2 μM, in vitro TRP M8 Activity
Counter-ions that a name gives are not always drawn.

[
  {
    "compound": "Cc1nc(C(C)(C)C)oc1-c1nc2cc(-c3ccccc3Cl)cc(C(F)(F)F)c2[nH]1 [Compound 179, hydrochloride]",
    "inhibition at 0.2 µM (%)": 18
  },
  {
    "compound": "Cc1nc(C(C)(C)C)oc1-c1nc2cc(-c3ccccc3F)cc(Cl)c2[nH]1 [Compound 182, hydrochloride]",
    "inhibition at 0.2 µM (%)": 26
  },
  {
    "compound": "Cn1nc(C(C)(C)C)c(C(F)(F)F)c1-c1nc2cc(-c3ccccc3C(F)(F)F)cc(C(F)(F)F)c2[nH]1 [Compound 187, sodium salt]",
    "inhibition at 0.2 µM (%)": 100
  },
  {
    "compound": "Cn1nc(C(C)(C)C)c(Cl)c1-c1nc2cc(-c3c(F)cccc3C#N)cc(C(F)(F)F)c2[nH]1 [Compound 146, hydrochloride]",
    "inhibition at 0.2 µM (%)": 100
  },
  {
    "compound": "Cn1nc(C(C)(C)C)c(C(F)(F)F)c1-c1nc2cc(-c3ccccc3Cl)cc(C(F)(F)F)c2[nH]1 [Compound 186, sodium salt]",
    "inhibition at 0.2 µM (%)": 99
  },
  {
    "compound": "Cc1oc(C(C)(C)C)nc1-c1nc2cc(-c3ccccc3)cc(C(F)(F)F)c2[nH]1 [Compound 157, hydrochloride]",
    "inhibition at 0.2 µM (%)": 41
  },
  {
    "compound": "Cc1oc(C(C)(C)C)nc1-c1nc2cc(-c3ccccc3F)cc(Cl)c2[nH]1 [Compound 161, hydrochloride]",
    "inhibition at 0.2 µM (%)": 36
  },
  {
    "compound": "Cc1oc(C(C)(C)C)c(C#N)c1-c1nc2cc(-c3ccccc3C(F)(F)F)cc(C(F)(F)F)c2[nH]1 [Compound 184, sodium salt]",
    "inhibition at 0.2 µM (%)": 101
  }
]

====

Target: canine TRPM8 (Canis lupus familiaris)
Construct: expressed in transfected cells
Experiment: In Vitro Canine TRPM8 Functional Assay (intracellular Ca2+ fluorescence, icilin activation, HEK293 cells)
Assay type: cell-based
Conditions: HEK293 cells expressing canine TRPM8, icilin activation; individually measured values (batches/salt forms); read-out: IC50 (nM), in vitro TRP M8 Activity
Where a name gives a salt, the structure may show the parent alone.

[
  {
    "compound": "CCc1ccccc1-c1ccc2[nH]c(-c3cc(C(C)(C)C)nn3C)nc2c1 [Compound 56, trifluoroacetic acid salt]",
    "IC50 / nM": 10.7
  },
  {
    "compound": "Cn1nc(C2CCC2)cc1-c1nc2cc(-c3ccccc3C(F)(F)F)ccc2[nH]1 [Compound 37, sodium salt]",
    "IC50 / nM": 55.9
  },
  {
    "compound": "COc1cccc(F)c1-c1ccc2[nH]c(-c3cnc(C(C)(C)C)n3C)nc2c1 [Compound 70, trifluoroacetic acid salt]",
    "IC50 / nM": 134
  },
  {
    "compound": "CCCc1cc(-c2nc3ccc(-c4ccccc4OC(F)(F)F)cc3[nH]2)on1 [Compound 19, hydrochloride]",
    "IC50 / nM": 18
  }
]

====

A collection of compounds and their measured inhibition at 0.2 µM
Target: canine TRPM8 (Canis lupus familiaris, UniProt Q1A7N1)
Construct: expressed in transfected cells
Test: In Vitro Canine TRPM8 Functional Assay (intracellular Ca2+ fluorescence, icilin activation, HEK293 cells)
Assay type: cell-based
Conditions: HEK293, 0.2 μM test compound; individually measured values; read-out: % Inh (%) @0.2 μM, in vitro TRP M8 Activity
Counter-ions that a name gives are not always drawn.
experimental_readout: inhibition at 0.2 µM (%)

[
  {
    "compound": "Cc1oc(-c2nc3cc(-c4ccccc4C(F)(F)F)cc(C(F)(F)F)c3[nH]2)nc1C(C)(C)C [Compound 194, hydrochloride]",
    "experimental_readout": "inhibition at 0.2 µM",
    "value_units": "%",
    "recorded_value": 63
  },
  {
    "compound": "Cc1oc(C(C)(C)C)nc1-c1nc2cc(-c3ccccc3OC(F)(F)F)cc(Cl)c2[nH]1 [Compound 159, hydrochloride]",
    "experimental_readout": "inhibition at 0.2 µM",
    "value_units": "%",
    "recorded_value": 19
  },
  {
    "compound": "Cc1oc(C(C)(C)C)nc1-c1nc2cc(-c3ccccc3C(F)(F)F)cc(C(F)(F)F)c2[nH]1 [Compound 153, hydrochloride]",
    "experimental_readout": "inhibition at 0.2 µM",
    "value_units": "%",
    "recorded_value": 25
  },
  {
    "compound": "Cn1nc(C(C)(C)C)c(C#N)c1-c1nc2cc(-c3ccccc3C(F)(F)F)cc(Cl)c2[nH]1 [Compound 169, sodium salt]",
    "experimental_readout": "inhibition at 0.2 µM",
    "value_units": "%",
    "recorded_value": 100
  },
  {
    "compound": "Cc1c(C(C)(C)C)nn(C)c1-c1nc2cc(-c3ccccc3C(F)(F)F)cc(Cl)c2[nH]1 [Compound 135, hydrochloride]",
    "experimental_readout": "inhibition at 0.2 µM",
    "value_units": "%",
    "recorded_value": 99
  },
  {
    "compound": "CC(C)(C)c1cc(-c2nc3cc(-c4c(F)cccc4C(F)(F)F)cc(C(F)(F)F)c3[nH]2)on1 [Compound 144, hydrochloride]",
    "experimental_readout": "inhibition at 0.2 µM",
    "value_units": "%",
    "recorded_value": 99
  }
]

====

Target: canine TRPM8 (Canis lupus familiaris)
Construct: expressed in transfected cells
Assay: In Vitro Canine TRPM8 Functional Assay (intracellular Ca2+ fluorescence, icilin activation, HEK293 cells)
Format: cell-based
Conditions: HEK293 cells expressing canine TRPM8, icilin activation; individually measured values (batches/salt forms); read-out: IC50 (nM), in vitro TRP M8 Activity
Where a name gives a salt, the structure may show the parent alone.
experimental_readout: IC50 (nM)

[
  {
    "compound": "CC(C)n1nc(C(C)(C)C)cc1-c1nc2cc(-c3ccccc3C(F)(F)F)ccc2[nH]1 [Compound 46, sodium salt]",
    "system_tested": "canine TRPM8 (Canis lupus familiaris)",
    "recorded_value": 21
  },
  {
    "compound": "Cc1c(C(C)(C)C)nn(C)c1-c1nc2cc(-c3c(F)cccc3C(F)(F)F)cc(C(F)(F)F)c2[nH]1 [Compound 119, hydrochloride]",
    "system_tested": "canine TRPM8 (Canis lupus familiaris)",
    "recorded_value": 2
  },
  {
    "compound": "FC(F)(F)Oc1ccccc1-c1ccc2[nH]c(-c3cc(Cl)no3)nc2c1 [Compound 34, sodium salt]",
    "system_tested": "canine TRPM8 (Canis lupus familiaris)",
    "recorded_value": 72.9
  },
  {
    "compound": "Cc1c(C(C)(C)C)nn(C)c1-c1nc2cc(-c3c(F)cccc3F)cc(C(F)(F)F)c2[nH]1 [Compound 122, hydrochloride]",
    "system_tested": "canine TRPM8 (Canis lupus familiaris)",
    "recorded_value": 5.5
  },
  {
    "compound": "Cn1nc2c(c1-c1nc3cc(-c4ccccc4C(F)(F)F)ccc3[nH]1)CCCC2(C)C [Compound 30, sodium salt]",
    "system_tested": "canine TRPM8 (Canis lupus familiaris)",
    "recorded_value": 36
  },
  {
    "compound": "CC(C)(C)Cc1cc(-c2nc3ccc(-c4ccccc4OC(F)(F)F)cc3[nH]2)on1 [Compound 21, hydrochloride]",
    "system_tested": "canine TRPM8 (Canis lupus familiaris)",
    "recorded_value": 29
  },
  {
    "compound": "Cn1nc2c(c1-c1nc3cc(-c4ccccc4F)ccc3[nH]1)CCC2(C)C",
    "system_tested": "canine TRPM8 (Canis lupus familiaris)",
    "recorded_value": 42
  },
  {
    "compound": "Cn1nc2c(c1-c1nc3cc(-c4ccccc4Cl)ccc3[nH]1)CCCC2(C)C [Compound 32, sodium salt]",
    "system_tested": "canine TRPM8 (Canis lupus familiaris)",
    "recorded_value": 21
  },
  {
    "compound": "CC(C)c1cc(-c2nc3cc(-c4ccccc4OC(F)(F)F)ccc3[nH]2)on1 [Compound 5, sodium salt]",
    "system_tested": "canine TRPM8 (Canis lupus familiaris)",
    "recorded_value": 22.5
  },
  {
    "compound": "Cc1c(C(C)(C)C)nn(C)c1-c1nc2cc(-c3ccccc3F)ccc2[nH]1 [Compound 93, hydrochloride]",
    "system_tested": "canine TRPM8 (Canis lupus familiaris)",
    "recorded_value": 10.9
  },
  {
    "compound": "Cn1nc(C(C)(C)C)cc1-c1nc2cc(-c3ccccc3C#N)ccc2[nH]1 [Compound 60, trifluoroacetic acid salt]",
    "system_tested": "canine TRPM8 (Canis lupus familiaris)",
    "recorded_value": 11.9
  },
  {
    "compound": "Cc1c(C(C)(C)C)noc1-c1nc2cc(-c3ccccc3F)ccc2[nH]1 [Compound 106, hydrochloride]",
    "system_tested": "canine TRPM8 (Canis lupus familiaris)",
    "recorded_value": 21.8
  },
  {
    "compound": "FC(F)(F)Oc1ccccc1-c1ccc2[nH]c(-c3cc(C4CC4)no3)nc2c1 [Compound 17, sodium salt]",
    "system_tested": "canine TRPM8 (Canis lupus familiaris)",
    "recorded_value": 52
  },
  {
    "compound": "COc1cccc(OC)c1-c1ccc2[nH]c(-c3cc(C(C)(C)C)no3)nc2c1 [Compound 63, trifluoroacetic acid salt]",
    "system_tested": "canine TRPM8 (Canis lupus familiaris)",
    "recorded_value": 5.5
  }
]
